Recorded EC50 for the following binders
- ASSAY SYSTEM: T1, recombinant human endotrophin (77 amino acids at the carboxy-terminal of the COL6α3 chain, HEK293-expressed, … (human, UniProt P12111 3101-3177))
- T1 construct: the His-tag was removed by enterokinase, leaving the 77 amino acid endotrophin free of tags; also called ETP; recombinant endotrophin protein
- T1 sequence (P12111 3101-3177 limits assumed): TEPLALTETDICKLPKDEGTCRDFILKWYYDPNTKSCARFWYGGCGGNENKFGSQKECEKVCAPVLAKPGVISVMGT
- ASSAY DETAILS: ELISA titration on plate-coated recombinant endotrophin, 4-parameter fit
Value expressed in µg/mL; do not type the unit.

Below, each entry is followed by its recorded EC50 result.
BINDER: ETP-mAb2 (antibody, V domains shown, Rabbit monoclonal) VH: EQSLEESEGGLVQPEGSLTLTCTASGFSFSRSDYMCWVRQAPGKGLEWIGWIDPGYSDTYYASWAQGRTTISKASSTTVTLQMTSLTVADTATYFCARDLGFDSNLWGPGTLVTISS VL: ELDLTQTPASVSEPVGGTVTIKCQASQSINSYLSWYQQKPGQPPKLLIYQASKLASGVPSRFKGSGSGTQFTLTISDLECADAATYYCQSYDYRISGSDGNVFGGGTNVEIK
EC50 [µg/mL]: 0.1

BINDER: ETP-mAb1 (antibody, V domains shown, Rabbit monoclonal) VH: QSVKESGGDLVKPGASLTLTCTASGIDFSAGYYMCWVRQAPGKGLELIACIYAGRSLNTFYASWAKGRFTISRASSTTVTLAMTSLTAADTATYFCARDGASSGYYFKLWGPGTLVTISS VL: ELDMTQTPASVEVAVGGTVTIKCQASQSIGSNLAWYQQKPGQRPNVLIYDASNLASGVSSRFKGSGSGTQFTLTISGGECADAATYYCQQGYSDNYLDNAFGGGTEVVVK
EC50 [µg/mL]: 0.023

Moving on to another binder below.
In: Output EC50 of ETP-mAb11 (antibody, V domains shown, Rabbit monoclonal) VH: QSVKESEGGLVQPEGSLTLTCTASGFSFSSSYYMCWVRQAPGKGLEWIGCIYLGNNENTAYTSWAKGRFTISKTSSTTVTLQMTSLTAADTTTYFCARDTSGGSDYYFGLWGPGTLVTISS VL: ELDLTQTPASVEVAVGGTVTIKCQASHRIKTYLAWYQQKPGQPPKLLIYGASTLASGVPSRFKGSGSGTQFTLTISGVECADAATYYCQQGYSDGNVDNVFGGGTEVEIK
Out: 0.359

The origin of these recorded values is patent US20220056124A1.
